Values were extracted from ChEMBL document CHEMBL4418299.

// pIC50 lookup, one value per entry
testedTarget: Macrophage colony-stimulating factor 1 receptor (Homo sapiens)
Sequence (P07333 whole entry, the tested form may be a part): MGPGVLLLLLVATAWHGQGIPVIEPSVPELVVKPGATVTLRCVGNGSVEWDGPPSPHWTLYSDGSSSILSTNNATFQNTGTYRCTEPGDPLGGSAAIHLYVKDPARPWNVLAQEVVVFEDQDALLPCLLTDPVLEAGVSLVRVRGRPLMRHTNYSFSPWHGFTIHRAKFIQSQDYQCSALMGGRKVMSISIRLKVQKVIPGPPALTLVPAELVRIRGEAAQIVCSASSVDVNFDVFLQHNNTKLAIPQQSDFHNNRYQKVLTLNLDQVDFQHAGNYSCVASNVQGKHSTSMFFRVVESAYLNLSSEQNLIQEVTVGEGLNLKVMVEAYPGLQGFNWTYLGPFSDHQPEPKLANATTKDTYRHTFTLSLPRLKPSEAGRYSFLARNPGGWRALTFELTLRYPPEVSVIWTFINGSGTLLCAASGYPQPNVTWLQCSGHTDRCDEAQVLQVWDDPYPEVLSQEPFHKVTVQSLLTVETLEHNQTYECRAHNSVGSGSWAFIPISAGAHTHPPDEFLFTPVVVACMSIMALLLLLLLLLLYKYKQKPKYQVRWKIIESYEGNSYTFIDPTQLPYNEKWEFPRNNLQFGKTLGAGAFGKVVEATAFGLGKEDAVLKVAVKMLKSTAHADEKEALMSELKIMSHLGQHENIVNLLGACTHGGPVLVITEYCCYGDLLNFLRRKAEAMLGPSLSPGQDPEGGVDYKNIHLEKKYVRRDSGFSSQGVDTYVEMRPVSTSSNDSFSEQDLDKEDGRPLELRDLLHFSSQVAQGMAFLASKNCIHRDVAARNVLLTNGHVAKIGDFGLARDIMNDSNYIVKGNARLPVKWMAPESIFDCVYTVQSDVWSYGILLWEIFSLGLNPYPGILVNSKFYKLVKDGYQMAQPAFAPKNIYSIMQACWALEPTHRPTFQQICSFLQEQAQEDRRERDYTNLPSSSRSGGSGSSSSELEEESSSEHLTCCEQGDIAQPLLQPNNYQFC
testName: Displacement of kinase tracer 236 from recombinant human His-tagged CSF1R cytoplasmic domain (538 to 910 residues) expressed in baculovirus-infected insect cells measured after 5 hrs by TR-FRET based LanthaScreen assay
pIC50: −log10 of the molar value.

{"compound": "COc1cc(CC(=O)Nc2ccc(-n3c4c(c5ncnc(N)c53)COC4)cc2)ccc1C", "testedTarget": "Macrophage colony-stimulating factor 1 receptor (Homo sapiens)", "pIC50": "6.70 to 8.00"}
{"compound": "Nc1ncnc2c3c(n(-c4ccc(NC(=O)Cn5ccc(C(F)(F)F)n5)cc4)c12)COC3", "testedTarget": "Macrophage colony-stimulating factor 1 receptor (Homo sapiens)", "pIC50": "6.70 to 8.00"}
{"compound": "Cc1ccc(CC(=O)Nc2ccc(-n3c4c(c5ncnc(N)c53)COC4)cc2)c(F)c1", "testedTarget": "Macrophage colony-stimulating factor 1 receptor (Homo sapiens)", "pIC50": "6.70 to 8.00"}
